Hey, just so you know, these numbers are from patent US11028127B2.

assay: Crystal violet viability assay; assay type: cell-based; settings: human, MDA-MB-231 shp53 (Mut-p53 knockdown) breast cancer cells; shp53 (Mut-p53 knockdown) subline; read-out: reduction in viability, MDA-MB-231 shp53 cells
Where no end group is shown, it is not given here.

| POLYMER_SEQUENCE | cytotoxicity at 48 h |
| --- | --- |
| IRGRIIRRRRRRRRRR [pCAP-155] | 30 to 40% |

----------
Tested on: Mut-p53
Experiment: Total activity score over combined assays (Table 8)
Design: scale not given here
Settings: Table 10 summary of activity of the peptides tested
Source text: Several alternative and complementary methods to screen lead peptide candidates for conformational and functional effects on Mut-p53 were employed. For increased penetration of peptide across cell membranes each peptide contains 3-6 Arginine residues either as part of its sequence or added either at its N-terminus or its C-terminus. […] In-vitro based assays for evaluation were first performed, such as ELISA for assessment of p53 conformation and sequence-specific DNA binding of p53.
Where no end group is shown, it is not given here. The star is where a group is joined. Myristoyl = CCCCCCCCCCCCCC(=O)*
RECORDED_METRIC: Activity Score

| SUBSTANCE | TARGET_SYSTEM | ASSAY_RESULT |
| --- | --- | --- |
| pCAP54 (IRGRIIR) | Mut-p53 | 26 |
| pCAP214 (RRRESEQRSISLHHHST) | Mut-p53 | 2 |
| pCAP82 (QIPHRSSTALQL) | Mut-p53 | 6 |
| pCAP239 (REGFYGPWHEQRRR) | Mut-p53 | 4 |
| pCAP90 (SCRCRLR) | Mut-p53 | 12 |
| pCAP107 (DRLSVFLFIM) | Mut-p53 | 0 |
| pCAP81 (VRCIFRGIWVRL) | Mut-p53 | 2 |
| pCAP103 (LRRQLQL) | Mut-p53 | 3 |
| pCAP47 (TLYLPHWHRH) | Mut-p53 | 14 |
| pCAP264 (RRRREVHTIHQHGIVHSD) | Mut-p53 | 0 |
| pCAP83 (HSSHHHPVHSWN) | Mut-p53 | 25 |
| pCAP96 (GTVDHHA) | Mut-p53 | 0 |
| pCAP67 (LHSKTLVLGGGRRRRGDR) | Mut-p53 | 2 |
| pCAP42 (MHPPDWYHHTPKH) | Mut-p53 | 29 |
| pCAP306 (Myristoyl-RLIRIRILM) | Mut-p53 | 6 |
| pCAP56 (ATPFHQT) | Mut-p53 | 5 |
| pCAP322 (RRIRDPQIK(Myristoyl)LEIHFSHID; not fully specified; printed as RRIRDPQIK-myrLEIHFSHID) | Mut-p53 | 0 |
| pCAP209 (HTPHPPVARTSPLQTPRR) | Mut-p53 | 0 |
| pCAP270 (SPHPPY) | Mut-p53 | 0 |
| pCAP32 (TSPLQSLK) | Mut-p53 | 4 |
| pCAP113 (HTTAHTH) | Mut-p53 | 3 |
| pCAP313 (Myristoyl-RRREILHPEFRILYE) | Mut-p53 | 8 |
| pCAP243 (RRCRSILPLLLLSR) | Mut-p53 | 2 |
| pCAP275 (Myristoyl-MTYSDMPRRIITDEDRRR) | Mut-p53 | 6 |
| pCAP288 (THDFDRLLRIRRR) | Mut-p53 | 6 |
| pCAP2 (VWVHDSCHANLQNYRNYLLP) | Mut-p53 | 2 |
| pCAP35 (GAMHLPWHMGTL) | Mut-p53 | 28 |
| pCAP297 (HDFDPRYRDRR) | Mut-p53 | 0 |
| pCAP257 (Myristoyl-HSSHHHPTVQHRR) | Mut-p53 | 8 |
| pCAP201 (HPTHPIRLRDNLTR) | Mut-p53 | 3 |
| pCAP10 (VAEFAQSIQSRIVEWKERLD) | Mut-p53 | 8 |
| pCAP122 (HSYSPYYTFRQH) | Mut-p53 | 5 |
| pCAP97 (WNHHHSTPHPAH) | Mut-p53 | 47 |
| pCAP100 (FPGHTIH) | Mut-p53 | 19 |
| pCAP314 (RSTPHIHEFIRR) | Mut-p53 | 3 |
| pCAP12 (GGGGGGGGGGGG) | Mut-p53 | 0 |
| pCAP205 (RCRNRKKEKTECLQKESEK) | Mut-p53 | 5 |
| pCAP71 (WTLSNYLGGRKKRRQRRRR) | Mut-p53 | 2 |
| pCAP272 (RRPHNLHHD) | Mut-p53 | 0 |
| pCAP134 (IRILMFLIGCGRRRRRRRR) | Mut-p53 | 40 |
| pCAP203 (RRRHDSCHNQLQNYDHSTE) | Mut-p53 | 42 |
| pCAP44 (VPHIHEFT) | Mut-p53 | 16 |
| pCAP98 (HSSGHNFVLVRQ) | Mut-p53 | 2 |
| pCAP59 (FLIRRSG) | Mut-p53 | 9 |
| pCAP27 (VHEVTHHWL) | Mut-p53 | 5 |
| pCAP143 (IPMNFTSHSLRQRRRRRRRRR) | Mut-p53 | 6 |
| pCAP144 (SFILFIRRGRLGRRRRRRRRR) | Mut-p53 | 49 |
| pCAP247 (RRITEIRGRTGKTTLTYIED) | Mut-p53 | 6 |
| pCAP292 (YDELYQKEDPHRRR) | Mut-p53 | 0 |
| pCAP6 (LGIDEDEETETAPE) | Mut-p53 | 5 |
| pCAP41 (WHHRQQIPRPLE) | Mut-p53 | 2 |
| pCAP280 (Myristoyl-RYRRLILEIWRR) | Mut-p53 | 6 |
| pCAP53 (ILVIIQRIM) | Mut-p53 | 3 |
| pCAP37 (KLQVPIK) | Mut-p53 | 6 |
| pCAP235 (RSYSKLLCLLERLRISP) | Mut-p53 | 11 |
| pCAP286 (HDFHDYLERR) | Mut-p53 | 4 |
| pCAP130 (EVTFRHSVVRRRRRRRRRRR) | Mut-p53 | 13 |
| pCAP68 (YRRLLIGMMWRRRRRRRRRRR) | Mut-p53 | 39 |
| pCAP110 (LFILVFR) | Mut-p53 | 2 |
| pCAP60 (SFILFIRRGRLG) | Mut-p53 | 40 |
| pCAP234 (HRTGHYTRCRQRCRSRSHNRH) | Mut-p53 | 2 |

----------
Tested on: Mut-p53
Experiment: Total activity score over combined assays (Table 8)
Set-up: scale not given here
Details: Table 10 summary of activity of the peptides tested
Text: Several alternative and complementary methods to screen lead peptide candidates for conformational and functional effects on Mut-p53 were employed. For increased penetration of peptide across cell membranes each peptide contains 3-6 Arginine residues either as part of its sequence or added either at its N-terminus or its C-terminus. […] In-vitro based assays for evaluation were first performed, such as ELISA for assessment of p53 conformation and sequence-specific DNA binding of p53.
Where no end group is shown, it is not given here. The star is where a group is joined. Myristoyl = CCCCCCCCCCCCCC(=O)*
RECORDED_METRIC: Activity Score

| SUBSTANCE | ASSAY_RESULT |
| --- | --- |
| pCAP300 (RIRRDPDSPLPHPE) | 0 |
| pCAP34 (SILTLSRIVLGWW) | 14 |
| pCAP80 (HLHKHHYKDSRM) | 9 |
| pCAP64 (APSIFTPHAWRQ) | 2 |
| pCAP87 (HANLHHT) | 37 |
| pCAP253 (TGKTFVKRHLTEFEKKYR) | 0 |
| pCAP282 (Myristoyl-RRPVAPDLRHTIHIPPER) | 43 |
| pCAP227 (Myristoyl-RRKILFIRLMHNKH) | 67 |

----------
test system: Mut-p53; test: Total activity score over combined assays (Table 8); design: scale not given here; settings: Table 10 summary of activity of the peptides tested
Where no end group is shown, it is not given here. The star is where a group is joined. Myristoyl = CCCCCCCCCCCCCC(=O)*

| SUBSTANCE | TARGET_SYSTEM | Activity Score |
| --- | --- | --- |
| pCAP20 (HHPWTHHQRWS) | Mut-p53 | 13 |
| pCAP15 (THFSHHLKH) | Mut-p53 | 12 |
| pCAP102 (SSVHHRG) | Mut-p53 | 3 |
| pCAP92 (FPHLVSSLTT) | Mut-p53 | 7 |
| pCAP316 (Myristoyl-DIHTIHLPDTHRR) | Mut-p53 | 7 |
| pCAP304 (Myristoyl-RRIRILMFLIGCGRV) | Mut-p53 | 0 |
| pCAP141 (SWQALALYAAGWRRRRRR) | Mut-p53 | 29 |
| pCAP215 (RRDTFDIRILMAF) | Mut-p53 | 0 |
| pCAP91 (STTHIHA) | Mut-p53 | 7 |
| pCAP291 (DLQYDFPRIRR) | Mut-p53 | 0 |
| pCAP52 (SPYPIRT) | Mut-p53 | 3 |
| pCAP279 (RDTIERPEIRR) | Mut-p53 | 6 |
| pCAP124 (VMVLFRILRGSM) | Mut-p53 | 2 |
| pCAP267 (KRGGRKRRGGGHRLSYFIRR) | Mut-p53 | 28 |
| pCAP127 (SPPIRHH) | Mut-p53 | 3 |
| pCAP312 (RRPRIPDYIL) | Mut-p53 | 3 |
| pCAP212 (Myristoyl-REEETILIIRRR) | Mut-p53 | 3 |
| pCAP29 (KPDSPRV) | Mut-p53 | 0 |
| pCAP106 (LIRRCSLQR) | Mut-p53 | 8 |
| pCAP229 (Myristoyl-PRVLPSPHTIHPSQYP) | Mut-p53 | 36 |
| pCAP285 (RRDIIRHNAHS) | Mut-p53 | 4 |
| pCAP17 (LHSKTLVL) | Mut-p53 | 23 |
| pCAP284 (Myristoyl-RHDTHNAHIRR) | Mut-p53 | 6 |
| pCAP13 (HFSHHLK) | Mut-p53 | 4 |
| pCAP238 (TSPHPSLPRHIYPRR) | Mut-p53 | 6 |
| pCAP320 (EPSHPRSRYPRTF) | Mut-p53 | 0 |
| pCAP93 (ATQHHYIK) | Mut-p53 | 17 |
| pCAP289 (RHNHIRPDNQ) | Mut-p53 | 6 |
| pCAP220 (STTHPHPGTSAPEPATRRR) | Mut-p53 | 6 |
| pCAP147 (ATQHHYIKRRRRRRRRRRR) | Mut-p53 | 10 |
| pCAP232 (RSRSSHLRDHERTHT) | Mut-p53 | 0 |
| pCAP132 (NHPWQFPNRWTRRRRRR) | Mut-p53 | 7 |
| pCAP61 (KDLPFYSHLSRQ) | Mut-p53 | 17 |
| pCAP208 (RRIRSGGKDHAWTPLHENH) | Mut-p53 | 0 |
| pCAP139 (MHPPDWYHHTPKRRRRRR) | Mut-p53 | 12 |
| pCAP94 (LRFIDYP) | Mut-p53 | 4 |
| pCAP65 (THFSHHLKHRRRRRRRRRR) | Mut-p53 | 17 |
| pCAP225 (HTIHSISDFPEPPDRRRR) | Mut-p53 | 3 |
| pCAP281 (Myristoyl-RDFILFIRRLGRR) | Mut-p53 | 3 |
| pCAP261 (RRRQPLPSAPENEE) | Mut-p53 | 5 |
| pCAP218 (RREVTELHHTHEDRR) | Mut-p53 | 0 |
| pCAP18 (SHQVHTHHNN) | Mut-p53 | 6 |
| pCAP125 (ELGLHRH) | Mut-p53 | 0 |
| pCAP219 (SYRHYSDHWEDRRR) | Mut-p53 | 1 |
| pCAP258 (FLIGPDRLIRSR) | Mut-p53 | 23 |
| pCAP72 (SCRCRLRRRRRRRRRR) | Mut-p53 | 5 |
| pCAP326 (Myristoyl-RRHNAHHSTPHPDDR) | Mut-p53 | 53 |
| pCAP117 (DHSKFVPLFVRQ) | Mut-p53 | 3 |
| pCAP255 (DPEPPRYLPPPPERR) | Mut-p53 | 0 |
| pCAP149 (FPGHTIHRRRRRRRRRRR) | Mut-p53 | 13 |
| pCAP265 (EEPDRQPSGKRGGRKRRSR) | Mut-p53 | 3 |
| pCAP309 (HPHVILPRIRIRIR) | Mut-p53 | 0 |
| pCAP74 (IRGRIIRRKKRRQRRRRGDR) | Mut-p53 | 6 |
| pCAP73 (SCRCRLRGDRGDR) | Mut-p53 | 0 |
| pCAP7 (SPLQTPAAPGAAAGPALSPV) | Mut-p53 | 6 |
| pCAP273 (RDFHTIHPSISRR) | Mut-p53 | 3 |
| pCAP95 (HQIHRNHTY) | Mut-p53 | 8 |
| pCAP118 (SNHHHRHHTNTH) | Mut-p53 | 13 |
| pCAP119 (HSAHHTM) | Mut-p53 | 0 |
| pCAP315 (LHFSHIDRR) | Mut-p53 | 9 |
| pCAP150 (IIRGNFLIGGRLRRRRRRRRR) | Mut-p53 | 26 |
| pCAP301 (Myristoyl-IRGRIRIIRRIR) | Mut-p53 | 12 |
